Test: Cytotoxicity against HEK293T cells assessed as cell viability at 200 uM incubated for 6 hrs by CCK8 assay relative to control
Format: toxicity, cell-based, HEK-293T
Settings: human, read-out: Activity

| STRUCTURE_SMILES | UNITS_TEXT | viability at 6 h, 200 µM |
| --- | --- | --- |
| C=C[C@]1(C)C[C@@H](OC(=O)CSc2ncnc(N(C)C)n2)[C@]2(C)[C@H](C)CC[C@]3(CCC(=O)[C@H]32)[C@@H](C)[C@@H]1O | % | 66.9 |

====

System: Enterococcus faecalis
Assay: Antibacterial activity against Enterococcus faecalis assessed as bacterial growth inhibition incubated for 18 to 24 hrs by NCCLS based assay
Format: functional
Conditions: time 18-24 hrs
Quick reference: MIC of the listed items.

| STRUCTURE_SMILES | REL | MIC / µg/mL |
| --- | --- | --- |
| C=C[C@]1(C)C[C@@H](OC(=O)CSc2ncnc(OC3CCCC3)n2)[C@]2(C)[C@H](C)CC[C@]3(CCC(=O)[C@H]32)[C@@H](C)[C@@H]1O | ≥ | 64 |
| C=C[C@]1(C)C[C@@H](OC(=O)CSc2ncnc(N3CCN(C)CC3)n2)[C@]2(C)[C@H](C)CC[C@]3(CCC(=O)[C@H]32)[C@@H](C)[C@@H]1O | ≥ | 64 |
| C=C[C@]1(C)C[C@@H](OC(=O)CSc2ncnc(N(C)C)n2)[C@]2(C)[C@H](C)CC[C@]3(CCC(=O)[C@H]32)[C@@H](C)[C@@H]1O | = | 32 |
| C=C[C@]1(C)C[C@@H](OC(=O)CSc2ncnc(NCC)n2)[C@]2(C)[C@H](C)CC[C@]3(CCC(=O)[C@H]32)[C@@H](C)[C@@H]1O | = | 16 |
| C=C[C@]1(C)C[C@@H](OC(=O)CSc2ncnc(N3CCCCC3)n2)[C@]2(C)[C@H](C)CC[C@]3(CCC(=O)[C@H]32)[C@@H](C)[C@@H]1O | = | 32 |
| C=C[C@]1(C)C[C@@H](OC(=O)CSc2ncnc(NCCNC)n2)[C@]2(C)[C@H](C)CC[C@]3(CCC(=O)[C@H]32)[C@@H](C)[C@@H]1O | = | 32 |
